Measured stoichiometry N accompanies every entry in the list below.
targetUnderTest: T1, Rae1(31-368)-Nup98(157-213) heterodimer (human, UniProt P78406 31-368; P52948 157-213)
T1 construct: also called Rae1-Nup98; Rae1-Nup98 complex
T1 sequence (P78406 31-368, chain 1 of 2): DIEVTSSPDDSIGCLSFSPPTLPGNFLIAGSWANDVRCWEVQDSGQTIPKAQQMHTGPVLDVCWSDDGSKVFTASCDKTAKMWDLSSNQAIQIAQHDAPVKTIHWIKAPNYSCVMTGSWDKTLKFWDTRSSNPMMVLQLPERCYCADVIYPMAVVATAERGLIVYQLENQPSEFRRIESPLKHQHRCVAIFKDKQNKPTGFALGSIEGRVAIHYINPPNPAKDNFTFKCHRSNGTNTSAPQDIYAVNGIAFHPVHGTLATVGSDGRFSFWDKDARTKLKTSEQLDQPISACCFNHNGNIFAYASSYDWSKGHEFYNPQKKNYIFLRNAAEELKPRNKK
T1 sequence (P52948 157-213, chain 2 of 2): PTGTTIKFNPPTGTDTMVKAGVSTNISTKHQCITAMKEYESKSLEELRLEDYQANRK
assayDetails: ITC
experimentalParameters: both partners purified

Illustrative cases are given below, each with its answer.
binder | stoichiometry N
DEEQPMEID (source: synthetic peptide) [SARS-CoV-2 ORF6 C4] | 0.82
YSQLDEEQPMEID (source: synthetic peptide) [SARS-CoV-2 ORF6 C3] | 0.9
SLTENKYSQLDEEQPMEID (source: synthetic peptide) [SARS-CoV-2 ORF6 C1] | 1.06

Ask: Param item = ENKYSQLDEEQPMEID (source: synthetic peptide) [SARS-CoV-2 ORF6 C2] ; retrieve measured stoichiometry N.
Result: 1.17
